TARGET DESC: T1, human fibrin (human fibrinogen coated on the plate and treated with thrombin) (human, UniProt P02671 36-629; P02675 45-491; P02679 27-437)
T1 construct: Made on the plate: coated human fibrinogen (Sigma) treated with 1.0 U/mL thrombin, CaCl2 and L-cysteine
T1 sequence (looked up) 1: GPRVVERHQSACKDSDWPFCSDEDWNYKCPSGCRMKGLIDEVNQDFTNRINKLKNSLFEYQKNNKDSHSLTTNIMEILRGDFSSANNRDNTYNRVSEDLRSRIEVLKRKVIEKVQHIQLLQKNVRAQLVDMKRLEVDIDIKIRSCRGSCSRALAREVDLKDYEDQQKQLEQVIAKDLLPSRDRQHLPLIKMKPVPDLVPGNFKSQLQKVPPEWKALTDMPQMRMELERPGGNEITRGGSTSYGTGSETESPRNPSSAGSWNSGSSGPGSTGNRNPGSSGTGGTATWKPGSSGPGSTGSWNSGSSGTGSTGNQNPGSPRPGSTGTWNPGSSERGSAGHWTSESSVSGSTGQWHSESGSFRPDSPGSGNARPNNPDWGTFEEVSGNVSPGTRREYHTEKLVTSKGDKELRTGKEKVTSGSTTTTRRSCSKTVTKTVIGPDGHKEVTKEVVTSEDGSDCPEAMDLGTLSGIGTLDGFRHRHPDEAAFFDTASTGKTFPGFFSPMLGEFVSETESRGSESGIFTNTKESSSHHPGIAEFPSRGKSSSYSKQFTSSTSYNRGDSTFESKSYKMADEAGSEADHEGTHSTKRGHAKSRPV
T1 sequence (looked up) 2: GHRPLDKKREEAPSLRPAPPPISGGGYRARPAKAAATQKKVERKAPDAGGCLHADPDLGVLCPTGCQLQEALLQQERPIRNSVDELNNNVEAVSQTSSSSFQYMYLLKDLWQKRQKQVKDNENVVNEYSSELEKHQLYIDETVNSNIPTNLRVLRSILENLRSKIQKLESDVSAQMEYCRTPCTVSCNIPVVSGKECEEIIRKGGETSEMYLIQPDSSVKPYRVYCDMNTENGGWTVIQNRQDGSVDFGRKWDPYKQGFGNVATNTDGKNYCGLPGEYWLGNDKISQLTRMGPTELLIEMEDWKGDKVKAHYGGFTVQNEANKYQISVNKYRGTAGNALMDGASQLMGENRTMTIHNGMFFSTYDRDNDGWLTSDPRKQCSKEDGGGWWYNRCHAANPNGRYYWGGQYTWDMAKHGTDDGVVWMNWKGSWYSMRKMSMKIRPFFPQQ
T1 sequence (looked up) 3: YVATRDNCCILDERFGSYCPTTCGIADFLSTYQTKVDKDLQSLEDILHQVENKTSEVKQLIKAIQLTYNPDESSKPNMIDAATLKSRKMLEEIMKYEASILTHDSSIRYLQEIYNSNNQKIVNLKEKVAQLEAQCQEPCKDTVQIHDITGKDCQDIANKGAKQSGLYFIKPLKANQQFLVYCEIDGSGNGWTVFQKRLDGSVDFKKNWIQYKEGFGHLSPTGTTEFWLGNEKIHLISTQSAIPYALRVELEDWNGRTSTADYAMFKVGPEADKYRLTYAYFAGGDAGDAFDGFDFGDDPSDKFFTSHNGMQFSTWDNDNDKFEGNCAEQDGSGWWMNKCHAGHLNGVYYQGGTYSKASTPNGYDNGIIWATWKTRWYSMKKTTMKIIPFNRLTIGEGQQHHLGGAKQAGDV
ASSAY PROTOCOL: single colony ELISA, secreted scFv on coated fibrin, anti-E-tag-HRP
Catalogue of OD450_Fibrin values

[
  {
    "BINDER": "scFv clone 7A3 (scFv, V domains shown, Tested as a secreted scFv with E-tag from the phage library) VH: EVQLVESGGGLVQPGGSLRLSCAASGFTINDWSIHWVRQAPGKGLEWVAYIGPFWGSTFYADSVKGRFTISADTSKNTAYLQMNSLRAEDTAVYYCARGYFGFDYWGQGTLVTVSS VL: DIQMTQSPSSLSASVGDRVTITCRASQDVGGWVAWYQQKPGKAPKLLISSPRSLYSGVPSRFSGSGSGTDFTLTISSLQPEDFATYYCQQYFSSPFTFGQGTKVEIKR",
    "OD450_Fibrin / OD450": 0.428
  },
  {
    "BINDER": "phage-displayed 3D5 scFv (scFv, Tested as secreted scFv in culture supernatant, detected through its E-tag) scFv: DIQMTQSPSSLSASVGDRVTITCRASQDVSNNVAWYQQKPGKAPKLLIFWSPWLYSGVPSRFSGSGSGTDFTLTISSLQPEDFATYYCQQGWDSPVTFGQGTKVEIKRGGGGSGGGGSGGGGSEVQLVESGGGLVQPGGSLRLSCAASGFTISDFGIHWVRQAPGKGLEWVASIWPSGGYTYYADSVKGRFTISADTSKNTAYLQMNSLRAEDTAVYYCARSWFYSWYDYWGQGTLVTVSS",
    "OD450_Fibrin / OD450": 0.829
  },
  {
    "BINDER": "scFv clone 3C2 (scFv, V domains shown, Tested as a secreted scFv with E-tag from the phage library) VH: EVQLVESGGGLVQPGGSLRLSCAASGFTIGNSSIHWVRQAPGKGLEWVAGIWPYWGSTYYADSVKGRFTISADTSKNTAYLQMNSLRAEDTAVYYCARFGINNDGFMDYWGQGTLVTVSS VL: DIQMTQSPSSLSASVGDRVTITCRASQDVSGWVAWYQQKPGKAPKLLISSTGSLYSGVPSRFSGSGSGTDFTLTISSLQPEDFATYYCQQYYDFPITFGQGTKVEIKR",
    "OD450_Fibrin / OD450": 0.759
  }
]

# credit: patent US20200157519A1
